# SYSTEM: complex I (NADH-ubiquinone oxidoreductase)
ASSAY READOUT: pKi
Here pKi is given on a logarithmic scale as minus log10 of the concentration in mol/L.

Task item: Give pKi (complex I (NADH-ubiquinone oxidoreductase)) of the following compound: "Cc1ccc(Sc2cccc3[nH]c4nc(N)nc(N)c4c23)cc1"
Reply: 6.08
